assay details: self-splicing fitness, log relative to wild type (ln ratio); higher = more splicing; Tetrahymena group I intron in knt gene, E. coli kanamycin selection, DiMSum; sequences stand for … in CUCUCU…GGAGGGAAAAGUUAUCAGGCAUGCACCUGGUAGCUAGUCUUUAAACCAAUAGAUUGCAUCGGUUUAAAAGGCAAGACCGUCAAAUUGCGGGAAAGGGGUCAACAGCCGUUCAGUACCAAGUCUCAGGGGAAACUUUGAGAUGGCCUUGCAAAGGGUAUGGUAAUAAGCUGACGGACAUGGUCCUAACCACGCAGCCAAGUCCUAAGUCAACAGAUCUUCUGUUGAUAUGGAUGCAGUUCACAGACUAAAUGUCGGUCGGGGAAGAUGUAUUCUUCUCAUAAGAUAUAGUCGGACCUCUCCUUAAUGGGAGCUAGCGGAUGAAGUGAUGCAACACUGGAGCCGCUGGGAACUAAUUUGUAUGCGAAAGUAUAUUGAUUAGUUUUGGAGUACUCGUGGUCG;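 further: selection with 25 µg/mL kanamycin versus none on LB agar overnight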
stated conditions: 37 °C
The class of a record is decided solely by its measured self-splicing fitness (ln); consult category 1: < -2; category 2: ≥ -2 and < -0.6; category 3: ≥ -0.6

# input Each sequence maps to one class by self-splicing fitness (ln). Which class for `CACGAGCAAUAUUACGCUAG` ?
# output category 1

# input Each sequence maps to one class by self-splicing fitness (ln). Which class for `AAGAAGCAAUAUUACGGGCG` ?
# output category 3

# input Each sequence maps to one class by self-splicing fitness (ln). Which class for `UCUUAGCAAUAUUACGUAGG` ?
# output category 3

# input Each sequence maps to one class by self-splicing fitness (ln). Which class for `ACUCAGCAAUAUUACGUUUU` ?
# output category 2

# input Each sequence maps to one class by self-splicing fitness (ln). Which class for `UCCCAGCAAUAUUACGGCAA` ?
# output category 3

---
# input Each sequence maps to one class by self-splicing fitness (ln). Which class for `AACUAGCAAUAUUACGACGA` ?
# output category 3

# input Each sequence maps to one class by self-splicing fitness (ln). Which class for `GAGGAGCAAUAUUACGCACU` ?
# output category 2

# input Each sequence maps to one class by self-splicing fitness (ln). Which class for `CAUGAGCAAUAUUACGAGUC` ?
# output category 1
